# Tested on: Escherichia coli
# Test description: Antibacterial activity against Escherichia coli MTCC 51 after 24 hrs by agar dilution assay
# Assay type: functional
# Particulars: MTCC 51, 24 h
Give measured MIC for each item. Keep answers brief.
# number only, unit µg/mL dropped from output

MIC lookup needed for O=[N+]([O-])c1ccc(-c2nnc3n2ccc2nnc(-c4ccc([N+](=O)[O-])cc4)n23)cc1 , thanks.
2

Would you mind telling me what MIC value was observed for Fc1ccc(-c2nnc3n2ccc2nnc(-c4ccc(F)cc4)n23)cc1 ?
4

If you can, please state the reported MIC value of N[C@@H](C(=O)N[C@@H]1C(=O)N2C(C(=O)O)=C(Cl)CS[C@H]12)c1ccccc1 [CEFACLOR ANHYDROUS] .
4

For the molecule c1coc(-c2nnc3n2ccc2nnc(-c4ccco4)n23)c1 , what MIC is on record?
64

# MIC lookup, item CC(=O)NC[C@H]1CN(c2ccc(N3CCOCC3)c(F)c2)C(=O)O1
8

What value of MIC has been reported for the following molecule? O=[N+]([O-])c1ccc(-c2nnc3n2ccc2nnc(-c4ccc([N+](=O)[O-])o4)n23)o1
2
